- Tgt: LPA/S1P GPCR of interest (Homo sapiens)
- Sequence (Q92633 whole entry): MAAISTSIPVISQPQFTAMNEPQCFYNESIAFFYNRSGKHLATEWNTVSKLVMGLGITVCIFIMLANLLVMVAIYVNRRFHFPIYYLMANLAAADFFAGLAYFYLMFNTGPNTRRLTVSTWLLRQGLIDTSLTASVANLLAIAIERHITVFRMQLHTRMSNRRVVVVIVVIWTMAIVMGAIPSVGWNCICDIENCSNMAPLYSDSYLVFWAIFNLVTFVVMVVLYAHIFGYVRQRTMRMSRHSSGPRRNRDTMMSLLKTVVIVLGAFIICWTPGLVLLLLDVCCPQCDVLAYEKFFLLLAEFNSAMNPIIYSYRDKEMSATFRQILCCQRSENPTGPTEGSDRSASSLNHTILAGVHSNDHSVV
- Test summary: Beta-Arrestin based assay (PathHunter)
pEC50: −log10 of the molar value.
Listed next: entries and their corresponding pEC50.

Worked examples follow.
Cc1noc(-c2cc3cc4sc(CC(=O)O)cc4cc3s2)c1NC(=O)O[C@H](C)c1ccccc1 [IT499]    < 6.30
Cc1noc(-c2ccc(-c3ccc(OCC(=O)O)cc3)cc2)c1NC(=O)O[C@H](C)c1ccccc1 [IT277]    6.30 to 7.30
C[C@@H](OC(=O)Nc1c(-c2cc3sc(-c4ccc(C5(C(=O)O)CC5)c(F)c4)cc3s2)nnn1C)c1ccccc1 [IT296]    > 7.30
C[C@@H](OC(=O)Nc1c(-c2ccc(-c3ccc(Oc4ccc(F)cc4C(=O)O)cc3)cc2)cnn1C)c1ccccc1 [IT461]    > 7.30
C[C@@H](OC(=O)Nc1c(-c2cc3sc(-c4ccc5[nH]c(C6(C(=O)O)CC6)nc5c4)cc3s2)cnn1C)c1ccccc1 [IT427]    < 6.30
Cc1nsc(-c2cc3sc(-c4ccc(C5(C(=O)O)CC5)nc4)cc3s2)c1NC(=O)O[C@H](C)c1ccccc1 [IT271]    6.30 to 7.30

Continue with the next compound.
-- ask Value lookup for pEC50; key = C[C@@H](OC(=O)Nc1c(-c2cc3sc(-c4ccc(CC(=O)O)s4)cc3s2)nnn1C)c1ccccc1 [IT179]
-- reply 6.30 to 7.30
